- EXPERIMENT NOTES: Oxidative metabolic stability in human liver microsomes assessed as compound remaining at 2 uM after 30 mins in presence of 1 mM UDPGA
- Format: ADME, Microsome
- REPORTED CONDITIONS: liver microsomes, read-out: Stability
VALUE TYPE: remaining at 0.5 h, 2 µM (%)

- COMPOUND: "O=S(=O)(c1ccc(C(F)(F)F)nc1)N1[C@@H](C2CC2)c2cn[nH]c2C(F)(F)[C@@H]1C1CC1 (stereo in doubt)"
  VALUE TYPE: "remaining at 0.5 h, 2 µM"
  MEASURED VALUE: 61
- COMPOUND: "C[C@@H]1c2cn[nH]c2C(=O)[C@H](C)N1S(=O)(=O)c1ccc(C(F)(F)F)nc1 (stereo in doubt)"
  VALUE TYPE: "remaining at 0.5 h, 2 µM"
  MEASURED VALUE: 91
- COMPOUND: "O=C1c2[nH]ncc2C(C2CC2)N(S(=O)(=O)c2ccc(C(F)(F)F)cc2)C1C1CC1 (racemic)"
  VALUE TYPE: "remaining at 0.5 h, 2 µM"
  MEASURED VALUE: 76
- COMPOUND: "CC(C)[C@H]1C(=O)c2[nH]ncc2[C@@H](C(C)C)N1S(=O)(=O)c1ccc(C(F)(F)F)cc1 (relative stereo)"
  VALUE TYPE: "remaining at 0.5 h, 2 µM"
  MEASURED VALUE: 82
- COMPOUND: "O=C1c2[nH]ncc2C(C2CC2)N(S(=O)(=O)c2ccc(C(F)(F)F)nc2)C1C1CCOCC1 (racemic)"
  VALUE TYPE: "remaining at 0.5 h, 2 µM"
  MEASURED VALUE: 64
- COMPOUND: "CC[C@@H]1c2cn[nH]c2C(=O)[C@H](CC)N1S(=O)(=O)c1ccc(Cl)cc1 (stereo in doubt)"
  VALUE TYPE: "remaining at 0.5 h, 2 µM"
  MEASURED VALUE: 65
- COMPOUND: "O=C1c2[nH]ncc2C(C2CC2)N(S(=O)(=O)c2ccc(C(F)(F)F)cn2)C12CC2 (racemic)"
  VALUE TYPE: "remaining at 0.5 h, 2 µM"
  MEASURED VALUE: 89
- COMPOUND: "O=C1CN(S(=O)(=O)c2ccc(C(F)(F)F)nc2)C(C2CC2)c2cn[nH]c21 (racemic)"
  VALUE TYPE: "remaining at 0.5 h, 2 µM"
  MEASURED VALUE: 42
